Species: Mus musculus
assay name: Anticonvulsant activity against pentylenetetrazole-induced clonic seizures in mice
Format: functional
condition description: Mus musculus; read-out: ED50
outcome measure: ED50

O=C(Cn1c(-c2ccc(Cl)cc2)nc2cccnc21)N1CCCCC1 ... 56.2 mg/kg
O=C(Cn1c(-c2ccc(Cl)cc2)nc2cccnc21)N1CCOCC1 ... 11.5 mg/kg
CCCN(C)C(=O)Cn1c(-c2ccc(Cl)cc2)nc2cccnc21 ... 11.6 mg/kg
CN(C)C(=O)Cn1c(-c2ccsc2)nc2cccnc21 ... 38 mg/kg

* * *

IC50 reference
system tested: GABA-A receptor; anion channel
assay name: Displacement of [3H]flunitrazepam from GABA-A benzodiazepine receptor of rat cerebral cortex membrane
Format: tissue-based
outcome measure: IC50

NC(=O)Cn1c(-c2ccc(F)cc2)nc2cccnc21 ... > 10 µM
CNC1=Nc2ccc(Cl)cc2C(c2ccccc2)=[N+]([O-])C1 [CHLORDIAZEPOXIDE] ... 0.71 µM
Cc1ccc(-c2nc3cccnc3n2CC(N)=O)cc1 ... 4.5 µM
CC(=O)N1CCN(C(=O)Cn2c(-c3ccc(Cl)cc3)nc3cccnc32)CC1 ... 6.4 µM
CN(C)C(=O)Cn1c(-c2ccoc2)nc2cccnc21 ... > 10 µM
O=C(O)CCCNC(=O)Cn1c(-c2ccc(Cl)cc2)nc2cccnc21 ... > 10 µM
CCN(CC)C(=O)Cn1c(-c2ccc(Cl)cc2)nc2cccnc21 ... 1.8 µM
CN(C)C(=O)Cn1c(-c2ccc(F)cc2)nc2cccnc21 ... > 10 µM
C[C@H](C(=O)N(C)C)n1c(-c2ccc(Cl)cc2)nc2cccnc21 ... > 10 µM
CN(C)C(=O)Cn1c(-c2ccc([N+](=O)[O-])cc2)nc2cccnc21 ... > 10 µM
NC(=O)Cn1c(-c2ccc(Br)cc2)nc2cccnc21 ... > 10 µM
CCOC(=O)N1CCN(C(=O)Cn2c(-c3ccc(Cl)cc3)nc3cccnc32)CC1 ... 5.1 µM
CN(C)C(=O)Cn1c(-c2ccc(Cl)cc2)nc2ccc(Cl)nc21 ... 0.46 µM
O=C(Cn1c(-c2ccc(Cl)cc2)nc2cccnc21)Nc1ccccn1 ... 0.31 µM
C[C@@H](C(=O)N(C)C)n1c(-c2ccc(Cl)cc2)nc2cccnc21 ... > 10 µM
Cc1ccc(-c2nc3cccnc3n2CC(=O)N(C)C)cc1 ... 1.75 µM
CN(C)CCNC(=O)Cn1c(-c2ccc(Cl)cc2)nc2cccnc21 ... > 10 µM
CN(C)C(=O)Cn1c(-c2ccc(Cl)cc2)nc2cc(Cl)cnc21 ... > 10 µM
CC(C)N(C(=O)Cn1c(-c2ccc(Cl)cc2)nc2cccnc21)C(C)C ... > 10 µM
CN(C)CCCNC(=O)Cn1c(-c2ccc(Cl)cc2)nc2cccnc21 ... > 10 µM
CN(C)C(=O)Cn1c(-c2ccco2)nc2cccnc21 ... > 10 µM
CN(C)C(=O)Cn1c(-c2ccccc2)nc2cccnc21 ... > 10 µM
O=C(Cn1c(-c2ccc(Cl)cc2)nc2cccnc21)Nc1ccccc1 ... > 10 µM
CN(C)C(=O)Cn1c(-c2ccc(Cl)cc2)nc2cnccc21 ... > 10 µM
O=C(Cn1c(-c2ccc(Cl)cc2)nc2cccnc21)Nc1ccncc1 ... 0.47 µM
O=C(Cn1c(-c2ccc(Cl)cc2)nc2cccnc21)N1CCCC1 ... 2.7 µM
NC(=O)Cn1c(-c2ccc(Cl)cc2)nc2ccc[n+]([O-])c21 ... > 10 µM
CC(=O)Oc1ccc2nc(-c3ccc(Cl)cc3)n(CC(=O)N(C)C)c2n1 ... > 10 µM
